- System: U2OS
- method: Multiplex assay against U2OS
- Assay type: toxicity, cell-based
- stated_conditions: human, 12 h, 10 µM, compound concentration 10 uM, replicate 1
Listing of entries alongside the reported Total Cell Count.
I only need the number, thanks.

Cc1nn(C)c2nc(NNC(=O)Nc3cc(Cl)nc(Cl)c3)cc(C(C)C)c12
222
C[C@H](NC(=O)CNC(=O)c1cccc(Cl)c1)c1ccccc1
198
Cc1cc(-c2ccc3c(c2)CC[C@H]3N2CC3(CCN(C(=O)Cc4cn5cc(C)sc5n4)CC3)C2)ncn1 [PF-5190457]
238
Nc1nc(-c2ccco2)c2cnn(Cc3ccccc3F)c2n1
197
CC(C)C[C@H](CO)Nc1nc(S[C@@H](C)c2ccccc2)nc2nc(N)sc12 [AZD-8797]
222

Enquiry: Which Total Cell Count value is on record for Cc1c(Cc2ccc3ccccc3n2)c2cc(F)ccc2n1CC(=O)O [TIMAPIPRANT] ?
Return: 244

Enquiry: Can you handle CCCCCCNC(=O)Nc1ccc(S(=O)(=O)Nc2ccc(CCNC[C@H](O)COc3ccc(O)cc3)cc2)cc1 [L-755507] next?
Return: 282
